- subject-of-test: T1, recombinant human EGFR extracellular domain with 6xHis (human, UniProt P00533 25-645)
- T1 construct: In-house produced; also called 6xHis EGFR ECD; soluble human EGFR ECD; not shown: 6xHis tag
- assay-text: SPR competition, competitor Ab-11
Documented % inhibition across a set of binders
value-type: % inhibition (%)

| binder | reported-result |
| --- | --- |
| antibody 1024 (antibody, human IgG1, kappa, V domains shown, Chimeric IgG1 kappa) VH: QVQLQQPGAELVEPGGSVKLSCKASGYTFTSHWMHWVKQRPGQGLEWIGEINPSSGRNNYNEKFKSKATLTVDKSSSTAYMQFSSLTSEDSAVYYCVRYYGYDEAMDYWGQGTSVTVSS VL: DIVMTQAAFSNPVTLGTSASISCRSSKSLLHSNGITYLYWYLQKPGQSPQLLIYQMSNLASGVPDRFSSSGSGTDFTLRISRVEAEDVGVYYCAQNLELPYTFGGGTKLEIKR | -13 |
| antibody 1257 (antibody, human IgG1, kappa, V domains shown, Chimeric IgG1 kappa) VH: EVQLQQSGPELVKPGASVKIPCKTSGYTFTDYNMAWVKQSHGKSLEWIGDIIPNNGGAIYNQKFKGKATLTVDKSSSTASMELRSLTSEDTAVYFCARKNIYYRYDGAGALDYWGQGTSVTVSS VL: QIVLTQSPAIMSASPGEKVTMTCSASSSVSYIYWYQQKPGSSPRLLIYDASNLASGVPVRFSGSGSGTSYSLTISRMEAEDAATYYCQQWSSYPITFGSGTKLEIKR | 100 |
| antibody 1344 (antibody, human IgG1, kappa, V domains shown, Chimeric IgG1 kappa) VH: QVQLKESGPGLVAPSQSLSITCTVSGFSLTIYGVHWVRQPPGKGLEWLGVIWAGGNTNYNSALMSRLSISKDNSKSQVFLKMNSLQTDDTAMYFCARGYGYNLDYWGQGTTLTVSS VL: DIQMTQTTSSLSASLGDRVTISCSASQGISNYLNWYQQKPDGTVKLLIYYTSSLHSGVPSRFSGSGSGTDYSLTISNLEPEDIATYYCQQYSKLPYTFGGGTKLEIKR | 86 |
